So I've got a bunch of compounds here, and I need their Viability of tumor cells (% viability), Human T-cell lymphoma Karpas-299 cells values.
System: human T-cell lymphoma Karpas-299 cells
METHOD_NOTES: Growth inhibition test on human T-cell lymphoma Karpas-299 cells (WST-1, % viability)
Assay type: cell-based
MEASUREMENT_CONDITIONS: test compound 10 μmol/L, 72 hours, cells without test compound = 100%
Numbers only here, please. The scale is %.

Entry CCc1c(O)cc(O)c(C(=O)c2ccc(S(C)(=O)=O)cc2)c1CC(=O)N(CCOC)CCOC has what Viability of tumor cells (% viability), Human T-cell lymphoma Karpas-299 cells? 14

Form field: reported Viability of tumor cells (% viability), Human T-cell lymphoma Karpas-299 cells of CCc1c(O)cc(O)c(C(=O)c2ccc(OCCN3CCOCC3)c(OC)c2)c1CC(=O)N(CCOC)CCOC 15

Name the reported Viability of tumor cells (% viability), Human T-cell lymphoma Karpas-299 cells value associated with the compound CCc1c(O)cc(O)c(C(=O)c2ccc(OC(C)C)cc2)c1CC(=O)N(CCOC)CCN1CCOCC1 16

I'd like to know its Viability of tumor cells (% viability), Human T-cell lymphoma Karpas-299 cells. The compound in question is CCc1c(O)cc(O)c(C(=O)c2ccc(OC)c(OC)c2)c1CC(=O)N1CCN(c2ccccc2)CC1 19

Please report the recorded Viability of tumor cells (% viability), Human T-cell lymphoma Karpas-299 cells for CCc1c(O)cc(O)c(C(=O)c2ccc(OC)cc2)c1CC(=O)N(C)Cc1cccnc1 . 13

Suppose we examine the compound CCc1c(O)cc(O)c(C(=O)c2ccc(OC(F)(F)F)cc2)c1CC(=O)N(CCO)CCOC ; what Viability of tumor cells (% viability), Human T-cell lymphoma Karpas-299 cells value has been reported? 16

Reported Viability of tumor cells (% viability), Human T-cell lymphoma Karpas-299 cells, compound CCc1c(O)cc(O)c(C(=O)c2ccc(OC)cc2)c1CC(=O)N(CCO)Cc1ccco1 : ____ 14

Which measured Viability of tumor cells (% viability), Human T-cell lymphoma Karpas-299 cells value corresponds to CCc1c(O)cc(O)c(C(=O)c2ccc(OC)cc2)c1CC(=O)N1CCN(c2ncccn2)CC1 ? 15

I have this compound here, CCOc1ccc(C(=O)c2c(O)cc(O)c(CC)c2CC(=O)N(CCO)CCOC)cc1 , and I need its recorded Viability of tumor cells (% viability), Human T-cell lymphoma Karpas-299 cells. 12

Bench note: what Viability of tumor cells (% viability), Human T-cell lymphoma Karpas-299 cells did CCc1c(O)cc(O)c(C(=O)c2ccc(OC(C)C)cc2)c1CC(=O)N(CCO)CCOC show? 14

Please report the recorded Viability of tumor cells (% viability), Human T-cell lymphoma Karpas-299 cells for CCc1c(O)cc(O)c(C(=O)c2ccc(OC)cc2)c1CC(=O)N1CCN(c2ccccc2C#N)CC1 . 16

Item under review: CCc1c(O)cc(O)c(C(=O)c2ccc(OC)cc2)c1CC(=O)N(CCO)CCO . Reported Viability of tumor cells (% viability), Human T-cell lymphoma Karpas-299 cells? 27

Fill blank: measured Viability of tumor cells (% viability), Human T-cell lymphoma Karpas-299 cells of the compound CCc1c(O)cc(O)c(C(=O)c2ccc(OC)cc2)c1CC(=O)N1CCC(CO)CC1 is ____. 13

I have this compound here, CCc1c(O)cc(O)c(C(=O)c2ccc(SC)cc2)c1CC(=O)N(CCO)CCOC , and I need its recorded Viability of tumor cells (% viability), Human T-cell lymphoma Karpas-299 cells. 15

Name the reported Viability of tumor cells (% viability), Human T-cell lymphoma Karpas-299 cells value associated with the compound CCc1c(O)cc(O)c(C(=O)c2ccc(OCCN3CCOCC3)c(OC)c2)c1CC(=O)N(CCOC)CCOC.Cl 14

Request the reported Viability of tumor cells (% viability), Human T-cell lymphoma Karpas-299 cells associated with CCc1c(O)cc(O)c(C(=O)c2ccc(OC)c(OC)c2)c1CC(=O)N(CCO)CCOC 14

Data origin, for the record: patent US20090042883A1
